- Tested on: TT2609-C02 (Thyroid Gland Carcinoma)
- Measurement description: Bliss excess, mean over the matrix (fraction); higher = more synergy;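 note: after 72 h of two-drug dosing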
Recorded metric: Bliss excess
// return a plain number; no unit text

stdin: What value of measured Bliss excess is listed for CN(CCO)CC[C@H](CSc1ccccc1)Nc1ccc(S(=O)(=O)NC(=O)c2ccc(N3CCC([C@@H](O)c4ccccc4-c4ccc(Cl)cc4)CC3)cc2)cc1S(=O)(=O)C(F)(F)F [AZD4320] + Cn1cnc2c(F)c(Nc3ccc(Br)cc3Cl)c(C(=O)NOCCO)cc21 [Selumetinib] (first compound max 1 µM, 7x7, partner max 3 µM) ?
stdout: -0.0046

stdin: What value of measured Bliss excess is listed for CN(CCO)CC[C@H](CSc1ccccc1)Nc1ccc(S(=O)(=O)NC(=O)c2ccc(N3CCC([C@@H](O)c4ccccc4-c4ccc(Cl)cc4)CC3)cc2)cc1S(=O)(=O)C(F)(F)F [AZD4320] + CCN(CCO)CCCOc1ccc2c(Nc3cc(CC(=O)Nc4cccc(F)c4)[nH]n3)ncnc2c1 [AZD2811] (first compound max 1 µM, 7x7, partner max 1 µM) ?
stdout: 0.0411

stdin: What value of measured Bliss excess is listed for COc1nnc2ccc(N3CCC(c4ccc(OCCN5CCN(C)C(=O)[C@H]5C)cc4)CC3)nn12 [AZD5153] + CN(CC[C@H](CSC1=CC=CC=C1)NC2=C(C=C(C=C2)S(=O)(=O)NC(=O)C3=CC=C(C=C3)N4CCC(CC4)[C@H](C5=CC=CC=C5C6=CC=C(C=C6)Cl)O)S(=O)(=O)C(F)(F)F)CCO [AZD4320] (first compound max 1 µM, 7x7, partner max 1 µM) ?
stdout: 0.0257

* * *

Can you tell me Bliss excess for the items I'm about to list?
- Test system: NCI-H1666 (Lung Adenocarcinoma)
- Measurement description: Bliss excess, mean over the matrix (fraction); higher = more synergy
// return a plain number; no unit text

stdin: What value of measured Bliss excess is listed for C[C@@H]1COCCN1c1cc(C2([S@](C)(=N)=O)CC2)nc(-c2ccnc3[nH]ccc23)n1 [AZD6738] + C1CC(C1)(C(=O)[O-])C(=O)[O-].N.N.[Pt+2] [Carboplatin] (first compound max 10 µM, 7x7, partner max 10 µM) ?
stdout: -0.0814

stdin: What value of measured Bliss excess is listed for C=CCn1c(=O)c2cnc(Nc3ccc(N4CCN(C)CC4)cc3)nc2n1-c1cccc(C(C)(C)O)n1 [AZD1775] + C1CN(CCC1(C(=O)N[C@@H](CCO)C2=CC=C(C=C2)Cl)N)C3=NC=NC4=C3C=CN4 [Capivasertib] (first compound max 3 µM, partner max 3 µM) ?
stdout: -0.0773

* * *

- Tested on: OS-RC-2 (Kidney Carcinoma)
- Measurement description: Bliss excess, mean over the matrix (fraction); higher = more synergy
Can you tell me Bliss excess for the items I'm about to list?
// return a plain number; no unit text

stdin: What value of measured Bliss excess is listed for COc1cccc(OCCCN)c1-c1cc(Nc2cnc(C#N)cn2)n[nH]1 [Prexasertib] + C[C@@H]1COCCN1C2=NC(=NC(=C2)C3(CC3)[S@](=N)(=O)C)C4=C5C=CNC5=NC=C4 [AZD6738] (first compound max 1 µM, 7x7, partner max 10 µM) ?
stdout: 0.0743

stdin: What value of measured Bliss excess is listed for CS(=O)(=O)CCNCc1ccc(-c2ccc3ncnc(Nc4ccc(OCc5cccc(F)c5)c(Cl)c4)c3c2)o1 [Lapatinib] + C[C@@H](Oc1cc(-c2cnn(C3CCNCC3)c2)cnc1N)c1c(Cl)ccc(F)c1Cl [Crizotinib] (first compound max 10 µM, 7x7, partner max 10 µM) ?
stdout: -0.0186
